Assay: Plasma pharmacokinetic profile of cannabidiol after a single topical dose (In-life Study 1901002-01, LC-MS/MS)
Format: in vivo, CD-1 mice
Settings: CD-1, topical or ocular; Group 2: AEM.CBD.007 Formulation B 2.5% CBD, single topical dose 0.1 mL, mean dose 76.61 mg/kg, mouse plasma
Description: The objective of this study was to determine the plasma pharmacokinetic (PK) profile of test article cannabidiol (CBD) following the administration of a single topical dose to CD-1 mice. The work was conducted at Alliance Pharma with a title of In-life Study 1901002-01. […] Sample Analyses: Study samples were analyzed using a bioanalytical method qualified by Alliance Pharma. […]
MEASURED ATTRIBUTE: AUC(0-inf) (ng·h/mL)
Expressed in ng·h/mL, but write only the number.

Can you share its AUC(0-inf)? I mean this compound: `C=C(C)[C@@H]1CCC(C)=C[C@H]1c1c(O)cc(CCCCC)cc1O` 1650
